# System: ACHN renal
# method-summary: NCI tumour cell line growth inhibition, 48 h; in the data active = GI50 below about 0.43 µM; inactive = the rest
# output must be one of active, inactive

COc1cc([N+](=O)[O-])c(OC)cc1-c1nc2sc(Cl)cn2c1/C=N/Nc1ccccn1 | inactive

Please state the recorded outcome for this compound: `Cc1cc(Nc2nc(SCc3ccc(C(=O)Nc4ccc(F)cc4N)cc3)nn3cccc23)n[nH]1` inactive

Now the compound `CCSc1nc(N)c2cn[nH]c2n1` inactive

Now the compound `CC(=O)[CH-]C(C)=O.[CH2-]C.[CH2-]C.[Tl+3]` inactive

Now the compound `CN(C)Cc1c[nH]c2c(NCCN)c3c(c(NCCN)c12)C(=O)c1ccccc1C3=O` inactive

Now the compound CC1CCCc2c1nn(C(=O)/C=C(\N)c1ccccc1)c2N (stereo unspecified) inactive

Now the compound `Cc1ncc(C(=O)Nc2ccc(CN3CCN(C)CC3)c(C(F)(F)F)c2)cc1C#Cc1cnc(NC2CC2)c2ncccc12` inactive

Now the compound `O=C1c2cccnc2-c2nc(-c3ccncc3)cc3c2c1nc1ccccc13` inactive

Now the compound `COc1ccc(/C=C2/CCc3cc4ccc(OC)cc4[o+]c32)c(O)c1` inactive

Now the compound `Cn1c(/C(C#N)=C/c2ccc3ccccc3c2)cc2ccccc21` active

Now the compound CCCCCCCCCCCC[n+]1ccccc1 (tested in a mixture with another compound) inactive
